- ASSAY COMMENT: Quantitative High-Throughput drug screen in 47 multiple myeloma cell lines against the NCATS MIPE library collection: SKMM1_PLB cell viability assay (AID 1919863); note: potency is the fitted concentration of half-maximal effect; nearly all actives have a fitted effect of over 35% in size
- CONDITION SET: SKMM1 myeloma viability, CellTiter-Glo ATP, 48 h
Results filed as inconclusive are left out. Calls of active or inactive are those of the source. Calls come from the whole dose curve; as a rule, active = well fitted cell-killing curve with a large enough effect; inconclusive = small, poorly fitted or top-dose-only effect, or effect the other way; inactive = no such curve, though single readings can be large or run the other way.
MEASUREMENT TYPE: Potency

[[record]]
molecule = "O=C(Nc1ccc(Oc2ccnc3[nH]ccc23)c(F)c1)c1cccn(-c2ccc(F)cc2)c1=O"
endpoint_result = "18.7 µM (active)"

[[record]]
molecule = "N#Cc1ccc(COC[C@H]2O[C@@H](n3c(NCc4ccc(Cl)c(Cl)c4)nc4c(N)ncnc43)[C@@H](O)[C@@H]2O)cc1"
endpoint_result = "2.96 µM (active)"

[[record]]
molecule = "c1cncc(CN2CCC(n3ncc4c(N5CCOCC5)nc(-c5ccc6[nH]ccc6c5)nc43)CC2)c1"
endpoint_result = "23.5 µM (active)"

[[record]]
molecule = "COc1ccc(C[C@@H](C)[C@@H](C)Cc2ccc(OC)c(OC)c2)cc1OC"
endpoint_result = "0.372 µM (active)"

[[record]]
molecule = "COc1cc([C@@H]2c3cc4c(cc3[C@@H](O[C@@H]3O[C@@H]5CO[C@@H](c6cccs6)O[C@@H]5[C@H](O)[C@@H]3O)[C@H]3COC(=O)[C@H]23)OCO4)cc(OC)c1O"
endpoint_result = "5.26 µM (active)"

[[record]]
molecule = "Cc1ccc2nc(NCCN)c3ncc(C)n3c2c1"
endpoint_result = "4.69 µM (active)"

[[record]]
molecule = "C=C1C(=O)O[C@H]2[C@@H]1CCC(C)=CCC[C@@]1(C)O[C@@H]21"
endpoint_result = "16.6 µM (active)"

[[record]]
molecule = "Cc1cnc(Nc2ccc(CN3CCOCC3)cc2)nc1Nc1cccc(S(=O)(=O)NC(C)(C)C)c1"
endpoint_result = "5.26 µM (active)"

[[record]]
molecule = "CCOC(=O)[C@@H](N)Cc1ccc(-c2cc(O[C@H](c3ccc(Cl)cc3-n3ccc(C)n3)C(F)(F)F)nc(N)n2)cc1"
endpoint_result = "23.5 µM (active)"

[[record]]
molecule = "CC(C=CC1=C(C)CCCC1(C)C)=CC=CC(C)=CC(=O)Nc1ccc(O)cc1"
endpoint_result = "19.1 µM (active)"

[[record]]
molecule = "CCc1ccc(C(=O)Nc2cc(CN3CCN(C)CC3)cc(C(F)(F)F)c2)cc1C#Cc1cnc2ccnn2c1"
endpoint_result = "16.6 µM (active)"

[[record]]
molecule = "CC(Cc1ccc(O)c(O)c1)(NN)C(=O)O (stereo not drawn)"
endpoint_result = "16.6 µM (active)"

[[record]]
molecule = "CN(C)CCN1C(=O)c2cccc3cc(N)cc(c23)C1=O"
endpoint_result = "18.7 µM (active)"

[[record]]
molecule = "C=CCNc1c(O)cc2c(O)c1C[C@@H](C)C[C@H](OC)[C@@H](O)[C@@H](C)C=C(C)[C@H](OC(N)=O)[C@@H](OC)C=CC=C(C)C(=O)N2"
endpoint_result = "0.264 µM (active)"

[[record]]
molecule = "CCNC(=O)Nc1ccc(-c2nc3c(c(N4CCOC[C@H]4C)n2)CCN(C2COC2)C3)cc1"
endpoint_result = "0.935 µM (active)"

[[record]]
molecule = "Oc1ccc([C@@H]2Oc3ccc(O)cc3[C@@H]3CCC[C@@H]32)cc1"
endpoint_result = "10.5 µM (active)"

[[record]]
molecule = "C=CC(=O)N1CCc2ccc(-n3c(=O)ccc4cnc5ccc(-c6cnn(C)c6)cc5c43)cc21"
endpoint_result = "1.32 µM (active)"

[[record]]
molecule = "O=C1NC(=O)[C@@H](c2cn3c4c(cccc24)CCC3)[C@H]1c1c[nH]c2ccccc12"
endpoint_result = "0.132 µM (active)"

